Cited source for all entries: the supplement of paper PMC9732359

Assay: protein stability index of a GFP-peptide fusion (yeast GPS) (PSI 1-4); higher = more stable; sorted into four equal gates, so the index is relative within each strain
Conditions: doa10∆
recordedEndpoint: protein stability index
Respond numerically, and do not add a unit to the figure.

// worked examples, protein stability index included
polymersequence="TLDKKDSIPLRITNSFY [RPN9]" measurement=2.52
polymersequence="AFIDERASDLRMTIRTR [RRP43]" measurement=1.81
polymersequence="NELLLPSELNQLKMVNE [RPC82]" measurement=3.14

-- ask Any idea what its protein stability index is? The sequence is HTLCNRCGRRSFHVQKK [RPL37A]
-- reply 2.98

-- ask Also check PRRFGKGSRQCRVCSSH [RPS29B]
-- reply 2.96

-- ask What about this sequence? NIKNTNEEATPIPSSET [RRP6]
-- reply 2.61
